Each recorded value in this set is attributed to patent US20210188989A1.

As shown below, each of these binders has a reported koff value.
Target: T1, recombinant cynomolgus 4-1BB extracellular domain protein (cynomolgus, UniProt A9YYE7 24-186)
T1 construct: Analyte in the Octet assay
T1 sequence: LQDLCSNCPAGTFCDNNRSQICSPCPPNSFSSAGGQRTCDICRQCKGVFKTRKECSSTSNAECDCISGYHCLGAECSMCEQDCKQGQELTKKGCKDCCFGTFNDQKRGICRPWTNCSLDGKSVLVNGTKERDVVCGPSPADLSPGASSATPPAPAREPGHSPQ
Assay: Octet BLI; chimeric IgG from transfection supernatant on anti-human Fc biosensor; recombinant cynomolgus 41BB; column kdis(1/s) Cynomolgus
Write it as a number; the unit s⁻¹ goes unstated.

Example binders with recorded koff:
416F8 (antibody, human IgG1, kappa, V domains shown, one of the 34 chimeric antibodies; rabbit variable regions on human IgG1 and human kappa; also called 416F8 chimeric rabbit/human IgG) VH: QSLEESGGRLVTPGTPLTLTCTASGFSLSNYYMNWVRQAPGKGLEYIGIISSSGSAYYASWAKGRFTISRTSTTVDLRITSPTTEDTATYFCARGDYGMDLWGQGTLVTVSS VL: AQVLTQTASSVSAPVGGTVTISCQSSQTVYNNNLLSWYQQKPGQRPKLLIYYASTLAFGVPSRFKGSGSGTEFTLTISDLECDDAATYFCQGGYSGWIYVFGGGTEVEVKR = 0.003
411H11 (antibody, human IgG1, kappa, V domains shown, one of the 34 chimeric antibodies; rabbit variable regions on human IgG1 and human kappa; also called 411H11 chimeric rabbit/human IgG) VH: QSVEESGGRLVTPGTPLTLTCTVSGFTISSHHMIWVRQAPGEGLQYIGFINDGDYTYYTNWAKGRFTISRTSTTVDLKMTSLTAADTATYFCARGVDGTSYPGLWGPGTLVTVSS VL: DVVMTQTPASVSEPVRATVTIKCQASQSIGADLAWYQQKPGQPPKLLIYRASTLASGVPSRFSGSGSGTEFTLTISDLECADAATYYCQCIYYGTDDVIYHTFGGGTEVVFKR = 0.0015
420H5 (antibody, human IgG1, kappa, V domains shown, one of the 34 chimeric antibodies; rabbit variable regions on human IgG1 and human kappa; also called 420H5 chimeric rabbit/human IgG) VH: QSLEESGGDLVKPGASLTLTCTASGFSFSSNYWICWVRQAPGKGLEWIACIYVGSSGDTYYASWAKGRFTISKTSSTTVTLQMTSLTAADTATYFCARDSSSYYMFNLWGQGTLVTVSS VL: ALVMTQTPASVSAAVGGTVTINCQASEDIDTYLAWYQQKPGQPPKLLIFYASDLASGVPSRFKGSGSGTEFTLTISGVQCDDAATYYCQGGYYTSSADTRGAFGGGTEVVVKR = 0.0023

QUERY: What does the record list as koff for 418E4 (antibody, human IgG1, kappa, V domains shown, one of the 34 chimeric antibodies; rabbit variable regions on human IgG1 and human kappa; also called 418E4 chimeric rabbit/human IgG) VH: QSLEESGGRLVTPGTPLTLTCTASEFSLSSYYMSWVRQAPGKGLEWIGSIYASGSAYYASWAKGRFTISRTSTTVDLKMTSLTAADTATYFCVRDPINNDIWGPGTLVTVSS VL: ALVMTQTPSPVSAAVGGTVTINCQASQSIATNLNWYQQKPGQPPKLLIYYTSSLASGVPSRFSGSGSGTEFTLTISGVQCDDAATYYCLGVWNYWGDDGTAFGGGTEVEFKR ?
RESULT: 0.005

QUERY: Now this one: 416G1 (antibody, human IgG1, kappa, V domains shown, one of the 34 chimeric antibodies; rabbit variable regions on human IgG1 and human kappa; also called 416G1 chimeric rabbit/human IgG) VH: QSVEESGGRLVTPGTPLTLTCTVSGFTINSYHMIWVRQAPGEGLEYIGFINDGGFTYYASWAKGRFIISRTSTTVDLKMTSLTVADTATYFCARGVDGTSYPDLWGPGTLVTVSS VL: DVVMTQTPASVSEPVGGAVTIKCQASQSIGSDLAWYQQKPGQPPKLLIYRASTLASGVSSRFKGSGSGTEFTLTISDLECADAATYYCQCIYYGSDDVIYHTFGGGTEVVVKR
RESULT: 0.0019
